target: GHSR (Homo sapiens, UniProt Q92847); construct: purchased Promega (in-house HiBiT-GPCR construct library, NanoBRET); test: NanoBRET screen HiBiT-GHSR in HEK293; format: binding; conditions: GHSR; tracer 1μM
Sequence (Q92847 whole entry): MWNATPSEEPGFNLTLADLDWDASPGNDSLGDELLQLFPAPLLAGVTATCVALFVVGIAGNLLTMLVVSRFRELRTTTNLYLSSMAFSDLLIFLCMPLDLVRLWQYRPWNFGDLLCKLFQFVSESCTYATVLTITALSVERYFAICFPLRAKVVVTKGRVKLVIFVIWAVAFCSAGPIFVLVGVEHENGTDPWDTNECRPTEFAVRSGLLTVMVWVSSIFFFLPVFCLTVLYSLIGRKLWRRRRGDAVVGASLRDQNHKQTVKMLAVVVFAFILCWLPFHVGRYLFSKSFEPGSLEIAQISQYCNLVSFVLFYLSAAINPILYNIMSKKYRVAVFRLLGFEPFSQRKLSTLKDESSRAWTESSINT
As shown below, each of these compounds has a reported NanoBRET Fold Response value.
result type: NanoBRET Fold Response

{"compound": "Cc1cc2c(s1)Nc1ccccc1N=C2N1CCN(CCCNC(=O)CCOCCOCCOCCOCCNC(=O)CCc2ccc3n2[B-](F)(F)[N+]2=C(c4ccc[nH]4)C=CC2=C3)CC1", "measurement target": "GHSR (Homo sapiens, UniProt Q92847)", "endpoint value": 0.98}
{"compound": "O=C(CCc1ccc2n1[B-](F)(F)[N+]1=C(c3ccc[nH]3)C=CC1=C2)NCCOCCOCCNC(=O)OCCOCCN1CCN(C2=Nc3ccccc3Sc3ccccc32)CC1", "measurement target": "GHSR (Homo sapiens, UniProt Q92847)", "endpoint value": 0.77}
{"compound": "COc1ccccc1N1CCN(CCCCN2C(=O)c3ccc(CNC(=O)CCOCCOCCOCCOCCNC(=O)CCc4ccc5n4[B-](F)(F)[N+]4=C(c6ccc[nH]6)C=CC4=C5)cc3C2=O)CC1", "measurement target": "GHSR (Homo sapiens, UniProt Q92847)", "endpoint value": 1.02}
{"compound": "CC(C)N(CC[C@H](c1ccccc1)c1cc(CCNC(=O)c2ccc(CNC(=O)CCc3ccc4n3[B-](F)(F)[N+]3=C(c5ccc[nH]5)C=CC3=C4)cc2)ccc1O)C(C)C", "measurement target": "GHSR (Homo sapiens, UniProt Q92847)", "endpoint value": 1.06}
{"compound": "O=C(CCc1ccc2n1[B-](F)(F)[N+]1=C(c3ccc[nH]3)C=CC1=C2)NCc1ccc(C(=O)NCCOCCC(=O)N[C@@H]2CC[C@@]3(O)[C@H]4Cc5ccc(O)c6c5[C@@]3(CCN4CC3CC3)[C@H]2O6)cc1 [Naltrexone-3-NB590]", "measurement target": "GHSR (Homo sapiens, UniProt Q92847)", "endpoint value": 0.90}

====

molecular target: CXCR3 (Homo sapiens, UniProt P49682); construct: purchased Promega (in-house HiBiT-GPCR construct library, NanoBRET); test: NanoBRET screen HiBiT-CXCR3 in HEK293; type: binding; details: CXCR3; tracer 1μM
Sequence (P49682 whole entry): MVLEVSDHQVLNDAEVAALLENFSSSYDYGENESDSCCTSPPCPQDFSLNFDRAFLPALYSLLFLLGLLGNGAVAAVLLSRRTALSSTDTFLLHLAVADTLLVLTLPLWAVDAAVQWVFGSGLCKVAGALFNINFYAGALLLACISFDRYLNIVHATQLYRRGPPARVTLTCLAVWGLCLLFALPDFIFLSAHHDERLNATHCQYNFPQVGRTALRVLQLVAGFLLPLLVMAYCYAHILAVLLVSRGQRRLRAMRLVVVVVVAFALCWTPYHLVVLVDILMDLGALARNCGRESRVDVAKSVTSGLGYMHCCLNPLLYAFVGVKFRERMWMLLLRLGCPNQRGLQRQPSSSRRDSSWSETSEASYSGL
As shown below, each of these compounds has a reported NanoBRET Fold Response value.

{"compound": "COc1ccccc1N1CCN(CCCCN2C(=O)c3ccc(CNC(=O)CCOCCNC(=O)c4ccc(CNC(=O)CCc5ccc6n5[B-](F)(F)[N+]5=C(c7ccc[nH]7)C=CC5=C6)cc4)cc3C2=O)CC1", "NanoBRET Fold Response": 1.01}
{"compound": "CCCn1c(=O)c2[nH]c(-c3ccc(OCC(=O)NCCNC(=O)CCOCCNC(=O)c4ccc(CNC(=O)CCc5ccc6n5[B-](F)(F)[N+]5=C(c7ccc[nH]7)C=CC5=C6)cc4)cc3)nc2n(CCC)c1=O", "NanoBRET Fold Response": 1.60}
{"compound": "CC(C)N(CC[C@H](c1ccccc1)c1cc(CCNC(=O)CCOCCOCCOCCOCCNC(=O)CCc2ccc3n2[B-](F)(F)[N+]2=C(c4ccc[nH]4)C=CC2=C3)ccc1O)C(C)C", "NanoBRET Fold Response": 1.01}
{"compound": "Cc1nc2n(c(=O)c1CCN1CCC(c3noc4cc(F)ccc34)CC1)CCCC2OC(=O)NCCOCCOCCOCCOCCNC(=O)CCc1ccc2n1[B-](F)(F)[N+]1=C(c3ccc[nH]3)C=CC1=C2 (stereo not shown)", "NanoBRET Fold Response": 0.91}
{"compound": "O=C(CCc1ccc2n1[B-](F)(F)[N+]1=C(c3ccc[nH]3)C=CC1=C2)NCc1ccc(C(=O)NCCOCCC(=O)N[C@@H]2CC[C@@]3(O)[C@H]4Cc5ccc(O)c6c5[C@@]3(CCN4CC3CC3)[C@H]2O6)cc1 [Naltrexone-3-NB590]", "NanoBRET Fold Response": 0.78}
{"compound": "Cc1cc2c(s1)Nc1ccccc1N=C2N1CCN(CCCNC(=O)CCOCCOCCOCCOCCNC(=O)CCc2ccc3n2[B-](F)(F)[N+]2=C(c4ccc[nH]4)C=CC2=C3)CC1", "NanoBRET Fold Response": 0.89}
{"compound": "N#CN=C(NCCCOc1cccc(CN2CCCCC2)c1)NCCNC(=O)CCOCCOCCOCCOCCNC(=O)CCc1ccc2n1[B-](F)(F)[N+]1=C(c3ccc[nH]3)C=CC1=C2", "NanoBRET Fold Response": 1.05}
{"compound": "CC(C)N(CC[C@H](c1ccccc1)c1cc(CCNC(=O)c2ccc(CNC(=O)CCc3ccc4n3[B-](F)(F)[N+]3=C(c5ccc[nH]5)C=CC3=C4)cc2)ccc1O)C(C)C", "NanoBRET Fold Response": 0.96}
{"compound": "O=C(CCc1ccc2n1[B-](F)(F)[N+]1=C(c3ccc[nH]3)C=CC1=C2)NCCOCCOCCNC(=O)OCCOCCN1CCN(C2=Nc3ccccc3Sc3ccccc32)CC1", "NanoBRET Fold Response": 1.14}
{"compound": "O=C(CCOCCOCCOCCOCCNC(=O)CCc1ccc2n1[B-](F)(F)[N+]1=C(c3ccc[nH]3)C=CC1=C2)NCCCN1CCN(C2=Nc3ccccc3Oc3ccc(Cl)cc32)CC1", "NanoBRET Fold Response": 1.26}

====

molecular target: MC4R (Homo sapiens); construct: purchased Promega (in-house HiBiT-GPCR construct library, NanoBRET); assay: NanoBRET screen HiBiT-MC4R in HEK293; format: binding; conditions: MC4R; tracer 1μM
Sequence (P32245 whole entry): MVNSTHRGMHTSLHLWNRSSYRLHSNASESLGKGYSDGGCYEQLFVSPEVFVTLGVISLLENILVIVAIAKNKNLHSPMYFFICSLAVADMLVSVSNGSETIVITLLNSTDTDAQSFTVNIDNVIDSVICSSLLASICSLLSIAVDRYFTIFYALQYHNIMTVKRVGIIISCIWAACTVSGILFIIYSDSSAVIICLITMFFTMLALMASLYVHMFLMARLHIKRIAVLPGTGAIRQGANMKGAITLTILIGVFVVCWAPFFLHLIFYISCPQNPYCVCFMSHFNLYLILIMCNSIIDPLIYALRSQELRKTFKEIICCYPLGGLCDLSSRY
As shown below, each of these compounds has a reported NanoBRET Fold Response value.

{"compound": "O=C(CCc1ccc2n1[B-](F)(F)[N+]1=C(c3ccc[nH]3)C=CC1=C2)NCc1ccc(C(=O)NCCOCCC(=O)N[C@@H]2CC[C@@]3(O)[C@H]4Cc5ccc(O)c6c5[C@@]3(CCN4CC3CC3)[C@H]2O6)cc1 [Naltrexone-3-NB590]", "NanoBRET Fold Response": 1.06}
{"compound": "COc1ccccc1N1CCN(CCCCN2C(=O)c3ccc(CNC(=O)CCOCCNC(=O)c4ccc(CNC(=O)CCc5ccc6n5[B-](F)(F)[N+]5=C(c7ccc[nH]7)C=CC5=C6)cc4)cc3C2=O)CC1", "NanoBRET Fold Response": 0.83}
{"compound": "CC(C)N(CC[C@H](c1ccccc1)c1cc(CCNC(=O)CCOCCOCCOCCOCCNC(=O)CCc2ccc3n2[B-](F)(F)[N+]2=C(c4ccc[nH]4)C=CC2=C3)ccc1O)C(C)C", "NanoBRET Fold Response": 1.00}
{"compound": "CCCn1c(=O)c2[nH]c(-c3ccc(OCC(=O)NCCNC(=O)CCOCCNC(=O)c4ccc(CNC(=O)CCc5ccc6n5[B-](F)(F)[N+]5=C(c7ccc[nH]7)C=CC5=C6)cc4)cc3)nc2n(CCC)c1=O", "NanoBRET Fold Response": 1.04}
{"compound": "Cc1cc2c(s1)Nc1ccccc1N=C2N1CCN(CCCNC(=O)CCOCCOCCOCCOCCNC(=O)CCc2ccc3n2[B-](F)(F)[N+]2=C(c4ccc[nH]4)C=CC2=C3)CC1", "NanoBRET Fold Response": 1.07}
{"compound": "N#CN=C(NCCCOc1cccc(CN2CCCCC2)c1)NCCNC(=O)CCOCCOCCOCCOCCNC(=O)CCc1ccc2n1[B-](F)(F)[N+]1=C(c3ccc[nH]3)C=CC1=C2", "NanoBRET Fold Response": 0.89}
{"compound": "CC(C)N(CC[C@H](c1ccccc1)c1cc(CCNC(=O)c2ccc(CNC(=O)CCc3ccc4n3[B-](F)(F)[N+]3=C(c5ccc[nH]5)C=CC3=C4)cc2)ccc1O)C(C)C", "NanoBRET Fold Response": 1.01}
{"compound": "Cc1nc2n(c(=O)c1CCN1CCC(c3noc4cc(F)ccc34)CC1)CCCC2OC(=O)NCCOCCOCCOCCOCCNC(=O)CCc1ccc2n1[B-](F)(F)[N+]1=C(c3ccc[nH]3)C=CC1=C2 (centres unmarked)", "NanoBRET Fold Response": 1.05}
{"compound": "O=C(CCOCCOCCOCCOCCNC(=O)CCc1ccc2n1[B-](F)(F)[N+]1=C(c3ccc[nH]3)C=CC1=C2)NCCCN1CCN(C2=Nc3ccccc3Oc3ccc(Cl)cc32)CC1", "NanoBRET Fold Response": 1.04}
{"compound": "O=C(CCc1ccc2n1[B-](F)(F)[N+]1=C(c3ccc[nH]3)C=CC1=C2)NCCOCCOCCNC(=O)OCCOCCN1CCN(C2=Nc3ccccc3Sc3ccccc32)CC1", "NanoBRET Fold Response": 1.06}
{"compound": "COc1ccccc1N1CCN(CCCCN2C(=O)c3ccc(CNC(=O)CCOCCOCCOCCOCCNC(=O)CCc4ccc5n4[B-](F)(F)[N+]4=C(c6ccc[nH]6)C=CC4=C5)cc3C2=O)CC1", "NanoBRET Fold Response": 1.01}
